The origin of these recorded values is patent US5677324A.

# Test system: guinea pig tracheal ring preparations
# assay explanation: in vitro relaxation of guinea pig tracheal ring preparations (smooth muscle relaxant activity)
# Type: cell-based
# condition label: Cavia porcellus; relaxation of KCl (20 mM)-contracted tracheal strips, Krebs solution, 37° C.; reversal to pretreatment base line = 100 percent relaxation
experimental readout: log10 IC50 (log10 of the value in nM)
Give log10 of IC50, with IC50 taken in nM.

Incoming: Entry CCOC(=O)CCCCn1nnnc1-c1ccc2c(c1)[C@@H](Oc1ccc(O)nn1)[C@](C)(O)C(C)(C)O2 has what log10 IC50?
Outgoing: 2.08

Incoming: Entry Cn1nnnc1-c1ccc2c(c1)[C@@H](N1CCCCC1=O)[C@H](O)C(C)(C)O2 (relative stereo) has what log10 IC50?
Outgoing: 1.83

Incoming: Entry CC1(C)Oc2ccc(-c3nnnn3CCc3ccccc3)cc2C(Oc2ccc(=O)[nH]n2)C1(C)O (centres unmarked) has what log10 IC50?
Outgoing: 2.64

Incoming: Entry CC1(C)Oc2ccc(-c3nnnn3CCc3ccccc3)cc2[C@@H](N2CCCCC2=O)[C@@H]1O (relative stereo) has what log10 IC50?
Outgoing: 1.60

Incoming: Entry Cn1nnnc1-c1ccc2c(c1)[C@@H](Oc1ccc(=O)[nH]n1)[C@](C)(O)C(C)(C)O2 has what log10 IC50?
Outgoing: 2.18
